Origin of values: patent US11447505B1

biological target: ROCK2 (Homo sapiens (Human), UniProt O75116); test: ROCK2 kinase assay (IMAP fluorescence polarization); format: biochemical; details: 1 μM ATP; read-out: ROCK2 Average Ki
Sequence (O75116 whole entry): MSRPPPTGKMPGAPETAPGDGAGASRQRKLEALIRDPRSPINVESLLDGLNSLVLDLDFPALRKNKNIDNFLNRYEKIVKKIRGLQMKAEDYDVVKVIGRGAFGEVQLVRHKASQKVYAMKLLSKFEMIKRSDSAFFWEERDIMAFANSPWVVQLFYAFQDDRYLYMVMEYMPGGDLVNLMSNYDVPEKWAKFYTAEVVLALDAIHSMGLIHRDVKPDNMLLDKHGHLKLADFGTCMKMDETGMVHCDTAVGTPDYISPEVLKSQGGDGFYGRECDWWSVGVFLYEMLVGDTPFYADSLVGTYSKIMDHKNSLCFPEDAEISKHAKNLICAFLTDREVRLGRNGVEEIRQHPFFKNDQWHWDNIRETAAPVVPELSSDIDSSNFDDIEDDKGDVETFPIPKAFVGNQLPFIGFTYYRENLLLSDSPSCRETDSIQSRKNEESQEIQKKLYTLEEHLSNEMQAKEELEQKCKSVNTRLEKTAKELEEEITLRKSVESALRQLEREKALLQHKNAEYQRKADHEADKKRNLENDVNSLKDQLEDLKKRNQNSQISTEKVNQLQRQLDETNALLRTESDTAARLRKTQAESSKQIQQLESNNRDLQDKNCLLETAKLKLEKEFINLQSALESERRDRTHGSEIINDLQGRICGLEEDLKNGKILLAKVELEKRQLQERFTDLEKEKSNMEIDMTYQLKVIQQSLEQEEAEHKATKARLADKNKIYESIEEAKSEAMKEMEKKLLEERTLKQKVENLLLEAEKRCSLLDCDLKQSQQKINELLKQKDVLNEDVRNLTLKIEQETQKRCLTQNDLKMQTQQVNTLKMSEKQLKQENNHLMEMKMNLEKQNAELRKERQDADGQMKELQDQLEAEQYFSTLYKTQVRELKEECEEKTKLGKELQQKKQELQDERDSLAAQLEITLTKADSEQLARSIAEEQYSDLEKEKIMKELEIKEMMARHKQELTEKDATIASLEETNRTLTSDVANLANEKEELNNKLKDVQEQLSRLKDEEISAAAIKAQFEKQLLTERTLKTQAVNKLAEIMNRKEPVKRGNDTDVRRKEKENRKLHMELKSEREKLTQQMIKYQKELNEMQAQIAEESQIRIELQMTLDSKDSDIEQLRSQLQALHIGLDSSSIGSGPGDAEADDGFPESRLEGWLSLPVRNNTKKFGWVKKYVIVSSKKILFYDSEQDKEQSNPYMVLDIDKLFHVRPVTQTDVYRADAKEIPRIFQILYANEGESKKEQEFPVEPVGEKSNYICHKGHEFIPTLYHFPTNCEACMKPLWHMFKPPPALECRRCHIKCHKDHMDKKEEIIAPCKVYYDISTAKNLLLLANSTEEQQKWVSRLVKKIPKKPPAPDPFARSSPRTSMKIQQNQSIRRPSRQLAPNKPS

{"columns": ["compound", "Ki"],
 "data": [
  ["c1ncc(-c2c[nH]c3nccc(N4CCC[C@H](N5CCOCC5)C4)c23)cn1", "876 nM"],
  ["c1ncc(-c2c[nH]c3nccc(OC[C@H]4CCNC4)c23)cn1", "34.7 nM"],
  ["Cc1cnc2[nH]cc(-c3cn[nH]c3)c2c1N1CCCCC1 [Example E2]", "102 nM"],
  ["CN[C@H]1CCCN(c2ccnc3[nH]cc(-c4cnccn4)c23)C1", "268 nM"],
  ["CCN1CCCCC12CCCN(c1ccnc3[nH]cc(-c4ncc(C)s4)c13)C2 (centres unmarked)", "152 nM"],
  ["CCN1CCCCC12CCCN(c1ccnc3[nH]cc(C#N)c13)C2 (centres unmarked)", "34.3 nM"],
  ["c1cc(-c2c[nH]c3nccc(N4CC[C@@]5(CCCCN5)C4)c23)ncn1", "4.41 nM"],
  ["Cc1cnc(-c2c[nH]c3nccc(N4CCC[C@@]5(CCCCN5)C4)c23)s1", "100 nM"],
  ["Cn1nccc1-c1c[nH]c2nccc(N3CCCCC3)c12", "2480 nM"],
  ["CN[C@H]1CCCN(c2ccnc3[nH]cc(C#N)c23)C1", "222 nM"],
  ["c1cc(-c2c[nH]c3nccc(N4CCCCC4)c23)cnn1", "6.5 nM"],
  ["CCN[C@H]1CCCN(c2ccnc3[nH]cc(-c4ccnnc4)c23)C1", "73.9 nM"],
  ["c1ncc(-c2c[nH]c3nccc(OC4CCCNCC4)c23)cn1 (centres unmarked)", "55.8 nM"],
  ["Cn1cc(-c2c[nH]c3nccc(N4CCCCC4)c23)cn1", "20.8 nM"]
]}

* * *

target: ROCK1 (Homo sapiens (Human), UniProt Q13464); assay: ROCK1 cellular assay (pMLC T18/S19 immunoblot, MDA-MB-231 cells with doxycycline inducible kinase domain); type: cell-based
Sequence (Q13464 2-1354 limits assumed): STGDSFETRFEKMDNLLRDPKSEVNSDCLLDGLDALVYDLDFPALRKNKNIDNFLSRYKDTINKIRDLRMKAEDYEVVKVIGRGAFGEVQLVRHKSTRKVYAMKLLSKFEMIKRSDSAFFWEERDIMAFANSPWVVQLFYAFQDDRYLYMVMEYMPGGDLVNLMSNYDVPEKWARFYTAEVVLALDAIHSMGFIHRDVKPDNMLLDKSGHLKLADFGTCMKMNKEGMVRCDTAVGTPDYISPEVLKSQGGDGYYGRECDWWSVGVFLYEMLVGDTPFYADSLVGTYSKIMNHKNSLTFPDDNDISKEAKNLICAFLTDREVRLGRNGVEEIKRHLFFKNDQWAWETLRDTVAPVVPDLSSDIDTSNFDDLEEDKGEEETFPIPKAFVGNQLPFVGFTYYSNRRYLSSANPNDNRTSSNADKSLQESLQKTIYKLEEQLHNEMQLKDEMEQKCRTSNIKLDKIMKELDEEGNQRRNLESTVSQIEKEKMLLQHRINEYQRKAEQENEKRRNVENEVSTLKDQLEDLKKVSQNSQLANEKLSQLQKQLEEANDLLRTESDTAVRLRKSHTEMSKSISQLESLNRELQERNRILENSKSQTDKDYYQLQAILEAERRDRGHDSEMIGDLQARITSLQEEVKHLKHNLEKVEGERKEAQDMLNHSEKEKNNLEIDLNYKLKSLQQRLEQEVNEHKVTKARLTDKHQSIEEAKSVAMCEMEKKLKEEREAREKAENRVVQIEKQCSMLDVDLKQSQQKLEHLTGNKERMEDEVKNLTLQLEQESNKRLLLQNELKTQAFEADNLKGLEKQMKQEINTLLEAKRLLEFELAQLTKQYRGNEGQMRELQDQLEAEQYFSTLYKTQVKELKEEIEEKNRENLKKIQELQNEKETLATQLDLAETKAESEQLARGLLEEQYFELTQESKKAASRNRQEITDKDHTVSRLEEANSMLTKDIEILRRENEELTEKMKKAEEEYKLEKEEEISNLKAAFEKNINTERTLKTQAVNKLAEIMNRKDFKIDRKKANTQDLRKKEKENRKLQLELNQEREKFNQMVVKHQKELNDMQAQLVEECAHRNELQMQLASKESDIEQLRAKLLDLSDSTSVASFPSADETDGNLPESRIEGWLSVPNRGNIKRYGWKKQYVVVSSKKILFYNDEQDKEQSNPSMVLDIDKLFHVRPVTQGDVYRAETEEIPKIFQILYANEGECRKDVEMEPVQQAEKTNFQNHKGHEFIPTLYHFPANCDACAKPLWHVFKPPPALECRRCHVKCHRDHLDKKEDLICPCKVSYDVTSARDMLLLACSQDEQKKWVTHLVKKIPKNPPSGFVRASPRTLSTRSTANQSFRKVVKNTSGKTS
Recorded IC50 values for a group of compounds are listed next.
measured_quantity: IC50

{"columns": ["compound", "recorded_measurement"],
 "data": [
  ["N#Cc1c[nH]c2nccc(N3CCC[C@@]4(CCCCN4)C3)c12", "> 30 µM"],
  ["c1cc(N2CCC3(CCCN3)C2)c2c(-c3ccsn3)c[nH]c2n1 (stereo not shown)", "> 30 µM"],
  ["CCN1CCCCC12CCCN(c1ccnc3[nH]cc(C#N)c13)C2 (stereo not shown)", "> 30 µM"],
  ["c1csc(-c2c[nH]c3nccc(N4CC[C@@]5(CCCN5)C4)c23)n1", "> 30 µM"]
]}

* * *

molecular target: ROCK1 (Homo sapiens (Human), UniProt Q13464); settings: read-out: ROCK1 Average Ki; 1 μM ATP
Recorded Ki values for a group of compounds are listed next.
measured_quantity: Ki (nM)

{"columns": ["compound", "assayed_target", "recorded_measurement"],
 "data": [
  ["CN[C@H]1CCCN(c2ccnc3[nH]cc(C#N)c23)C1 [Example E74]", "ROCK1 (Homo sapiens (Human), UniProt Q13464)", 637],
  ["c1cc(-c2c[nH]c3nccc(N4CCCC5(CCCCN5)C4)c23)cnn1 (stereo not drawn) [Example E172]", "ROCK1 (Homo sapiens (Human), UniProt Q13464)", 33.6],
  ["c1ncc(-c2c[nH]c3nccc(N4CC5CNCC5C4)c23)cn1 (stereo not drawn) [Example E199]", "ROCK1 (Homo sapiens (Human), UniProt Q13464)", 222],
  ["c1ncc(-c2c[nH]c3nccc(N4CCC[C@H](N5CCCCC5)C4)c23)cn1 [Example E98]", "ROCK1 (Homo sapiens (Human), UniProt Q13464)", 2530],
  ["CN1CCN(c2ccnc3[nH]cc(C#N)c23)CC1 [Example E32]", "ROCK1 (Homo sapiens (Human), UniProt Q13464)", 237],
  ["N#Cc1c[nH]c2nccc(N3CCC3)c12 [Example E240]", "ROCK1 (Homo sapiens (Human), UniProt Q13464)", 38.7],
  ["CC(C)N[C@H]1CCCN(c2ccnc3[nH]cc(-c4cncnc4)c23)C1 [Example E76]", "ROCK1 (Homo sapiens (Human), UniProt Q13464)", 32400],
  ["c1cc(-c2c[nH]c3nccc(N4CCCNCC4)c23)cnn1 [Example E43]", "ROCK1 (Homo sapiens (Human), UniProt Q13464)", 59.5],
  ["CN1CCC[C@H](COc2ccnc3[nH]cc(-c4cncnc4)c23)C1 [Example E226]", "ROCK1 (Homo sapiens (Human), UniProt Q13464)", 150]
]}

* * *

biological target: UniProt:Q13464; conditions: read-out: ROCK1 Average Ki; 1 μM ATP
measured_quantity: log10 Ki (log10 of the value in nM)

{"columns": ["compound", "log10 Ki"],
 "data": [
  ["N#Cc1c[nH]c2nccc(N3CCCC3)c12", 1.96],
  ["Cc1nccc(-c2c[nH]c3nccc(N4CCCC5(CCCCN5)C4)c23)n1 (stereo not drawn)", 5.00],
  ["c1ncc(-c2c[nH]c3nccc(N4CCC[C@H](N5CCCC5)C4)c23)cn1", 3.23],
  ["CN1CC[C@H](COc2ccnc3[nH]cc(-c4cncnc4)c23)C1", 2.28],
  ["CN[C@H]1CCCN(c2ccnc3[nH]cc(-c4cnn(C)c4)c23)C1", 2.48],
  ["CNC1CCCN(c2ccnc3[nH]cc(-c4cncnc4)c23)CC1 (stereo not drawn)", 1.75],
  ["N[C@H]1CCCN(c2ccnc3[nH]cc(-c4cncnc4)c23)C1", 2.66],
  ["Cc1cnc2[nH]cc(-c3cn[nH]c3)c2c1N1CCCCC1 [Example E2]", 2.32],
  ["c1cc(-c2c[nH]c3nccc(N4CCCC5(CNC5)C4)c23)cnn1", 1.76]
]}

* * *

target: ROCK1 (Homo sapiens (Human), UniProt Q13464); assay: biochemical
measured_quantity: Ki (nM)

{"columns": ["molecule", "assayed_target", "recorded_measurement"],
 "data": [
  ["CC1(N)CCCN(c2ccnc3[nH]cc(-c4nccs4)c23)C1 (stereo not drawn) [Example E176]", "ROCK1 (Homo sapiens (Human), UniProt Q13464)", 67.1],
  ["Cc1csnc1-c1c[nH]c2nccc(N3CCCC4(CCCCN4)C3)c12 (stereo not drawn) [Example E142]", "ROCK1 (Homo sapiens (Human), UniProt Q13464)", 104],
  ["c1cc(N2CCCC3(CCCCN3)C2)c2c(-c3ncsn3)c[nH]c2n1 (stereo not drawn) [Example E236]", "ROCK1 (Homo sapiens (Human), UniProt Q13464)", 390]
]}

* * *

biological target: ROCK1 (Homo sapiens (Human), UniProt Q13464); assay: ROCK1 cellular assay (pMLC T18/S19 immunoblot, MDA-MB-231 cells with doxycycline inducible kinase domain); type: cell-based; conditions: MDA-MB-231 cells, doxycycline inducible kinase domain, 60 minutes, pMLC (T18/S19); read-out: Cellular assay - ROCK1 inhibition MEAN
Recorded IC50 values for a group of compounds are listed next.

{"columns": ["compound", "IC50"],
 "data": [
  ["Cc1csnc1-c1c[nH]c2nccc(N3CCCC4(CCCCN4)C3)c12 (centres unmarked) [Example E142]", "> 30 µM"],
  ["CCN1CCCC[C@@]12CCCN(c1ccnc3[nH]cc(-c4ccncn4)c13)C2 [Example E207]", "> 30 µM"],
  ["c1cc(N2CCC[C@@]3(CCCCN3)C2)c2c(-c3ncsn3)c[nH]c2n1 [Example E116]", "> 30 µM"],
  ["c1csc(-c2c[nH]c3nccc(N4CCC[C@@]5(CCCCN5)C4)c23)n1 [Example E150]", "> 30 µM"],
  ["c1ncc(-c2c[nH]c3nccc(N4CCC[C@@]5(CCCCN5)C4)c23)cn1 [Example E122]", "> 30 µM"],
  ["Cc1cnc(-c2c[nH]c3nccc(N4CCC[C@@]5(CCCCN5)C4)c23)s1 [Example E146]", "> 30 µM"],
  ["CCN1CCCCC12CCCN(c1ccnc3[nH]cc(-c4ncc(C)s4)c13)C2 (centres unmarked) [Example E210]", "> 30 µM"],
  ["c1cc(-c2c[nH]c3nccc(N4CCC[C@@]5(CCCCN5)C4)c23)cnn1 [Example E174]", "2.25 µM"]
]}

* * *

Recorded Ki values for a group of molecules are listed next.
target: MRCKα (Homo sapiens (Human), UniProt Q5VT25); test: MRCKα kinase assay (IMAP fluorescence polarization); assay type: biochemical; conditions: 1 μM ATP; read-out: MRCK-a Average Ki
Sequence (Q5VT25 whole entry): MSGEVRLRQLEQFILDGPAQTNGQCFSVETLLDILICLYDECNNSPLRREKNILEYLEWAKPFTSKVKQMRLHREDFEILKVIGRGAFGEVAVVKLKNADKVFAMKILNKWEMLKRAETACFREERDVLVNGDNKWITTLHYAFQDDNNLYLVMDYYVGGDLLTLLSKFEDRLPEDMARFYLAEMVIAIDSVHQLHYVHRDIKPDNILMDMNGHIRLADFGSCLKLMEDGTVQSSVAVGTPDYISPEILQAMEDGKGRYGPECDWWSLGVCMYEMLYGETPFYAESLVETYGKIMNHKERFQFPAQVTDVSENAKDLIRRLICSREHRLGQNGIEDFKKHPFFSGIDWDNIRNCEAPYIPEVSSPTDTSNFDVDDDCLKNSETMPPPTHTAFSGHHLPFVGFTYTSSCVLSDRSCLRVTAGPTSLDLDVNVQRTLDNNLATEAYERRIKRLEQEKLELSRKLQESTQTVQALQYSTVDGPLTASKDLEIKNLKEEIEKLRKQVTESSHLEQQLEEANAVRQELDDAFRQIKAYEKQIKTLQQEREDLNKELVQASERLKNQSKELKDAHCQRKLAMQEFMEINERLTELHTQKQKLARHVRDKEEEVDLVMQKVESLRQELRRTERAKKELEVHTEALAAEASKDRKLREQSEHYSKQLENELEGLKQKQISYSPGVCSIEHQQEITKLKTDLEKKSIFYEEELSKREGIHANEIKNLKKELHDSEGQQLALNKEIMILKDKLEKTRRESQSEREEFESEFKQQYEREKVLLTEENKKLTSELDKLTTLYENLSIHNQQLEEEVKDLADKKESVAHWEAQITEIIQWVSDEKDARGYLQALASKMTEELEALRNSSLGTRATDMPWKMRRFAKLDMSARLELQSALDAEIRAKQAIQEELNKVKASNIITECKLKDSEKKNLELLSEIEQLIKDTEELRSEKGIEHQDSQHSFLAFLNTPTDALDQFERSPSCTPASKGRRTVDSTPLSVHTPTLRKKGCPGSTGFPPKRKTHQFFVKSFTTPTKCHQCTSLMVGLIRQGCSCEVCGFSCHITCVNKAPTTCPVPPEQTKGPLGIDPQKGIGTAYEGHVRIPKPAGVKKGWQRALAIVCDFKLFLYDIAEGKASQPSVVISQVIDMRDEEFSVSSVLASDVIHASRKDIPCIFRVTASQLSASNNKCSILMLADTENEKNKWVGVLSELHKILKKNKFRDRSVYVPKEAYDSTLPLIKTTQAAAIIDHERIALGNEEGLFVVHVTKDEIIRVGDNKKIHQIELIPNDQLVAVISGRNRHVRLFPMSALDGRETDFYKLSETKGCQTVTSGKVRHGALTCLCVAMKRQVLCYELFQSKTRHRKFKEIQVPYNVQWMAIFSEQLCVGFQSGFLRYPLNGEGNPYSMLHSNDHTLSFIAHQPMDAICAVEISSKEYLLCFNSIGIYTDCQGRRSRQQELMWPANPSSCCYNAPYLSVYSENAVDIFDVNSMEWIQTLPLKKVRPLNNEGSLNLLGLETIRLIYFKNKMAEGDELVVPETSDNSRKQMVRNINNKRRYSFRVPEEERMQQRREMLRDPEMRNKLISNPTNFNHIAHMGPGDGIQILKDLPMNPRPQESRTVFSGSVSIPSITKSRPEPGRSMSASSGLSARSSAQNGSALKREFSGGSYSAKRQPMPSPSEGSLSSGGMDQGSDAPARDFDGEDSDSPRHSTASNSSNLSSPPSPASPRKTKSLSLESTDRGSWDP

{"columns": ["molecule", "assayed_target", "Ki [nM]"],
 "data": [
  ["N#Cc1c[nH]c2nccc(N3CCC[C@@]4(CCCCN4)C3)c12", "MRCKα (Homo sapiens (Human), UniProt Q5VT25)", 0.249],
  ["c1ncc(-c2c[nH]c3nccc(OC[C@H]4CCCNC4)c23)cn1", "MRCKα (Homo sapiens (Human), UniProt Q5VT25)", 0.189],
  ["CN[C@H]1CCCN(c2ccnc3[nH]cc(-c4cn[nH]c4)c23)C1", "MRCKα (Homo sapiens (Human), UniProt Q5VT25)", 0.522],
  ["c1ncc(-c2c[nH]c3nccc(O[C@H]4CCCNC4)c23)cn1", "MRCKα (Homo sapiens (Human), UniProt Q5VT25)", 28.4],
  ["Cc1csnc1-c1c[nH]c2nccc(N3CCCC4(CCCCN4)C3)c12 (stereo not shown)", "MRCKα (Homo sapiens (Human), UniProt Q5VT25)", 0.216],
  ["CN[C@H]1CCCN(c2ccnc3[nH]cc(-c4cnn(C)c4)c23)C1", "MRCKα (Homo sapiens (Human), UniProt Q5VT25)", 18.9],
  ["c1ncc(-c2c[nH]c3nccc(N4CCC[C@@]5(CCCCN5)C4)c23)cn1", "MRCKα (Homo sapiens (Human), UniProt Q5VT25)", 0.0284]
]}
